Target: mouse Mincle (Mus musculus, UniProt Q9R0Q8)
Construct: host or cells: HEK (HEK-Blue) cells with NF-κB-driven SEAP reporter
Sequence (Q9R0Q8 1-214): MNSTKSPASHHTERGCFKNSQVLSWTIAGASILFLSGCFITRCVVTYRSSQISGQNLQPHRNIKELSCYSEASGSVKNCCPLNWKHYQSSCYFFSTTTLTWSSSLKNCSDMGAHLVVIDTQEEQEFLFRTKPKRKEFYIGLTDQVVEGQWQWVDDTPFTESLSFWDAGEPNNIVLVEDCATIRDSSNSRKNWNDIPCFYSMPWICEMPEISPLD
Experiment: HEK cells expressing mouse Mincle with NF-κB-driven SEAP reporter
Format: cell-based
Conditions: average calculated EC50, n = 3; plate-coated compound, 24 h; read-out: mMincle EC50 (converted)
RESULT TYPE: EC50 (nM)
# number only, unit nM dropped from output

Name the reported EC50 value associated with the compound "CCCC(CCC)C(=O)OC[C@H]1O[C@H](O[C@H]2O[C@H](COC(=O)C(CCC)CCC)[C@@H](O)[C@H](O)[C@H]2O)[C@H](O)[C@@H](O)[C@@H]1O"
2850

Requested read-out: EC50. Entry: "CCCCCC(CCCCC)C(=O)OC[C@H]1O[C@H](O[C@H]2O[C@H](COC(=O)C(CCCCC)CCCCC)[C@@H](O)[C@H](O)[C@H]2O)[C@H](O)[C@@H](O)[C@@H]1O"
1260

Request the reported EC50 associated with "CCCCCCCCCCCCC(CCCCCCCCCCCC)C(=O)OC[C@H]1O[C@H](O[C@H]2O[C@H](COC(=O)C(CCCCCCCCCCCC)CCCCCCCCCCCC)[C@@H](O)[C@H](O)[C@H]2O)[C@H](O)[C@@H](O)[C@@H]1O"
907

Any idea what EC50 was measured for "CCCCCCCCCCCCCCC(CCCCCCCCCCCCCC)C(=O)OC[C@H]1O[C@H](O[C@H]2O[C@H](COC(=O)C(CCCCCCCCCCCCCC)CCCCCCCCCCCCCC)[C@@H](O)[C@H](O)[C@H]2O)[C@H](O)[C@@H](O)[C@@H]1O" ?
955

EC50 lookup needed for "CCCCCCCCCCCCCCCC(CCCCCCCCCCCCCCC)C(=O)OC[C@H]1O[C@H](O[C@H]2O[C@H](COC(=O)C(CCCCCCCCCCCCCCC)CCCCCCCCCCCCCCC)[C@@H](O)[C@H](O)[C@H]2O)[C@H](O)[C@@H](O)[C@@H]1O" , thanks.
64.4

Bench note: what EC50 did "CCCCCCCCCCC(CCCCCCCCCC)C(=O)OC[C@H]1O[C@H](O[C@H]2O[C@H](COC(=O)C(CCCCCCCCCC)CCCCCCCCCC)[C@@H](O)[C@H](O)[C@H]2O)[C@H](O)[C@@H](O)[C@@H]1O" show?
689

Entry "CCCCCCCCC(CCCCCCCC)C(=O)OC[C@H]1O[C@H](O[C@H]2O[C@H](COC(=O)C(CCCCCCCC)CCCCCCCC)[C@@H](O)[C@H](O)[C@H]2O)[C@H](O)[C@@H](O)[C@@H]1O" : reported EC50 = ?
599

Would you kindly share the measured EC50 for "CCCCCCCCCC(CCCCCCCCC)C(=O)OC[C@H]1O[C@H](O[C@H]2O[C@H](COC(=O)C(CCCCCCCCC)CCCCCCCCC)[C@@H](O)[C@H](O)[C@H]2O)[C@H](O)[C@@H](O)[C@@H]1O" ?
328

Entry under review: "CCCCCCCCCCCC(CCCCCCCCCCC)C(=O)OC[C@H]1O[C@H](O[C@H]2O[C@H](COC(=O)C(CCCCCCCCCCC)CCCCCCCCCCC)[C@@H](O)[C@H](O)[C@H]2O)[C@H](O)[C@@H](O)[C@@H]1O" . Reported EC50?
608

# query: EC50 of entry "CCCCC(CCCC)C(=O)OC[C@H]1O[C@H](O[C@H]2O[C@H](COC(=O)C(CCCC)CCCC)[C@@H](O)[C@H](O)[C@H]2O)[C@H](O)[C@@H](O)[C@@H]1O"
3450

Data request, read-out EC50, for "CCCCCCCCCCCCCC(CCCCCCCCCCCCC)C(=O)OC[C@H]1O[C@H](O[C@H]2O[C@H](COC(=O)C(CCCCCCCCCCCCC)CCCCCCCCCCCCC)[C@@H](O)[C@H](O)[C@H]2O)[C@H](O)[C@@H](O)[C@@H]1O"
592

// EC50 lookup, key: "CCC(CC)C(=O)OC[C@H]1O[C@H](O[C@H]2O[C@H](COC(=O)C(CC)CC)[C@@H](O)[C@H](O)[C@H]2O)[C@H](O)[C@@H](O)[C@@H]1O"
739

Could you tell me which EC50 is on file for "CCCCCCC(CCCCCC)C(=O)OC[C@H]1O[C@H](O[C@H]2O[C@H](COC(=O)C(CCCCCC)CCCCCC)[C@@H](O)[C@H](O)[C@H]2O)[C@H](O)[C@@H](O)[C@@H]1O" ?
1520

Please look up its EC50: "CCCCCCCCCCCCCCCCCC(CCCCCCCCCCCCCCCCC)C(=O)OC[C@H]1O[C@H](O[C@H]2O[C@H](COC(=O)C(CCCCCCCCCCCCCCCCC)CCCCCCCCCCCCCCCCC)[C@@H](O)[C@H](O)[C@H]2O)[C@H](O)[C@@H](O)[C@@H]1O"
25800
